protocol notes: CCTE_Shafer_MEA_acute_cross_correlation_HWHM: CCTE's Neural Acute Assay for Cross Correlation at Half Width at Half Maximum, Shafer Lab (AID 2284026);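 also: spontaneous network firing of rat primary cortical neurons on multiwell microelectrode arrays; percent change per well from pre-dose baseline in spike cross-correlogram half width; hits are a decrease in cross-correlogram half width relative to DMSO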
The source made the active and inactive calls. The calls were made as follows: active = hit-call score of the fitted dose curve at least 0.9, where 1 is the maximum; inactive = score below 0.9.
In this exercise, the only acceptable responses are 1 = active, 0 = inactive

-- ask For Oc1c(Cl)cc(Cl)c(Cl)c1Cc1c(O)c(Cl)cc(Cl)c1Cl , what call appears in the results of this test?
-- reply 0

###

Read-out: Interleukin-8 (IL8), CXCL8 (gene 3576)
protocol notes: BSK_LPS_IL8: BioMAP Diversity Plus: LPS Assay for Interleukin-8 (IL8) Biomarker Activity (AID 2283078)
condition context: primary human HUVEC with PBMC; actives raise or lower the signal
Activity calls are given as the source filed them. Rule for the calls: active = hit-call score of the fitted dose curve at least 0.9, where 1 is the maximum; inactive = score below 0.9.
In this exercise, the only acceptable responses are 1 (yes) (active), 0 (no) (inactive)

- compound: "CSCCC=O"
  category label: "0 (no)"
- compound: "c1ccc2cc(Nc3ccc(Nc4ccc5ccccc5c4)cc3)ccc2c1"
  category label: "0 (no)"
- compound: "CCCCCCC(CO)CCCC (stereo not drawn)"
  category label: "0 (no)"
- compound: "CN(C)C(=O)Nc1ccc(Oc2ccc(Cl)cc2)cc1"
  category label: "0 (no)"
- compound: "CC(=O)C1(C)CC2=C(CCCC2(C)C)CC1C (stereo not drawn)"
  category label: "1 (yes)"
- compound: "c1ccc(Oc2ccccc2)cc1"
  category label: "0 (no)"
- compound: "CCN(CC)C(=O)N(CC)CC"
  category label: "0 (no)"

Now look at this entry.
-- ask For C1=CC2C3C=CC(C3)C2C1 (stereo not drawn) , what call appears in the results of this test?
-- reply 0 (no)

###

experimental target: human RAR-related Orphan Receptor beta (RORb), RORB (gene 6096)
protocol notes: ATG_RORb_TRANS: Attagene TRANS-FACTORIAL HepG2 Assay for human RAR-related Orphan Receptor beta (RORb) (AID 2283010)
Results filed as inconclusive are left out. The source made the active and inactive calls. The calls were made as follows: active = hit-call score of the fitted dose curve at least 0.9, where 1 is the maximum; inconclusive = response in the unintended direction; inactive = score below 0.9.
observable: outcome

In the examples that follow, each entry is paired with its recorded outcome.
- molecule: "CCCCC(CC)C(=O)OC(C)C (stereo not drawn)"
  outcome: "inactive"
- molecule: "CCC(=O)OCCOc1ccccc1"
  outcome: "inactive"
- molecule: "CCCCOCC"
  outcome: "inactive"
- molecule: "CCOc1ccc(NC(=O)CC(C)=O)cc1"
  outcome: "inactive"
- molecule: "O=c1c(O)c(-c2ccc(O)cc2)oc2cc(O)cc(O)c12"
  outcome: "inactive"

-- ask Query (molecule): COCCOCCOCCO ; field requested: outcome
-- reply inactive

-- ask Query (molecule): O=c1[nH]c(=O)c2cn[nH]c2[nH]1 ; field requested: outcome
-- reply inactive

-- ask Query (molecule): [O-]n1ccccc1=S.[O-]n1ccccc1=S.[Zn+2] ; field requested: outcome
-- reply inactive

###

experimental target: Nuclear respiratory factor 1 (Homo sapiens)
protocol notes: ATG_NRF1_CIS: Attagene CIS-FACTORIAL HepG2 Assay for human Nuclear Respiratory Factor 1 (NRF1) Orphan Gene (AID 2282987)
condition context: HepG2 NRF1 cis-element reporter, Attagene multiplex; actives raise or lower the signal
Active and inactive are the calls of the source. How the source made its calls: active means hit-call score of the fitted dose curve at least 0.9, where 1 is the maximum; inactive means score below 0.9.
In this exercise, the only acceptable responses are active, inactive

- molecule: "CSCCC=O"
  category label: "inactive"
- molecule: "CC(C)(CO)[C@@H](O)C(=O)NCCC(=O)O"
  category label: "inactive"
- molecule: "CC1(C)C(=O)N(Cl)C(=O)N1Br"
  category label: "inactive"

-- ask For C[Si](C)(C)O[Si](C)(C)C , what call appears in the results of this test?
-- reply inactive

-- ask For C=CC(=O)OCCCC , what call appears in the results of this test?
-- reply inactive

-- ask For O=P(O)(O)O , what call appears in the results of this test?
-- reply inactive
